Data origin, for the record: paper PMC5700166

For each of the sequences below, state its binding signal.
Target: GST-Co-NF-kB (Capsaspora owczarzaki, UniProt F1ARL5 200-546)
Sequence: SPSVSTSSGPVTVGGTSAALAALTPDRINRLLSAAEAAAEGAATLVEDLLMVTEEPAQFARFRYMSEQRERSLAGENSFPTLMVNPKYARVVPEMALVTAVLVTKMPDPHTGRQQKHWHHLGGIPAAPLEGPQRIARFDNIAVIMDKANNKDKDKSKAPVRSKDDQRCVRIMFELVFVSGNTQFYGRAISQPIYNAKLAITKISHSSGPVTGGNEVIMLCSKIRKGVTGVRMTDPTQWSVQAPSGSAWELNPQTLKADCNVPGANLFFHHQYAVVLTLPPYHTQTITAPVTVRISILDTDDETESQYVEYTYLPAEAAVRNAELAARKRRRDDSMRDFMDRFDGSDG
Assay: protein-binding microarray (PBM); PBM: ~300 nM protein, 6 mM HEPES pH 7.8, 80 mM KCl, 0.5 mM EDTA, 0.5 mM EGTA, 6% glycerol, 35 ng/ul poly-dIdC, 1% milk, 1 h, room temperature; high values mean tight binding
Conditions: dsDNA, one strand shown
Note: unit z-score is implicit; provide only the numeric part.

stdin: # input sequence: `CCGATTAACATCACAAATACCCCTGATGTTAATCGGGTCTTGATTCGCTTGACGCTGCTG` ; wanted: its binding signal
stdout: 4.04

stdin: Returns the measured binding signal for the input sequence. Input: `CCGATTAACATCAAGGGACTTCCTGATGTTAATCGGGTCTTGATTCGCTTGACGCTGCTG`
stdout: 1.07

stdin: Which binding signal is listed for `CCGATTAACATCAGGGGTATTACTGATGTTAATCGGGTCTTGATTCGCTTGACGCTGCTG` ?
stdout: 3.37

stdin: Return reported binding signal; argument: `CCGATTAACATCAACCCCCCCCTTGATGTTAATCGGGTCTTGATTCGCTTGACGCTGCTG`
stdout: 5.09

stdin: Which binding signal value belongs to `CCGATTAACATCAGCACTCCCCCTGATGTTAATCGGGTCTTGATTCGCTTGACGCTGCTG` ?
stdout: 3.89

stdin: Reported binding signal for `CCGATTAACATCAATTCCCGTACTGATGTTAATCGGGTCTTGATTCGCTTGACGCTGCTG` : what is it?
stdout: 2.55

stdin: Reported binding signal for `CCGATTAACATCAGAGTTTCCCCTGATGTTAATCGGGTCTTGATTCGCTTGACGCTGCTG` : what is it?
stdout: 7.72

stdin: # input sequence: `CCGATTAACATCAATTTCCCACCTGATGTTAATCGGGTCTTGATTCGCTTGACGCTGCTG` ; wanted: its binding signal
stdout: 2.84

stdin: Fill in: binding signal of `CCGATTAACATCAGGGTATACCCTGATGTTAATCGGGTCTTGATTCGCTTGACGCTGCTG` is ___
stdout: 2.48

stdin: Tell me the measured binding signal of `CCGATTAACATCAGGCTTTTCCCTGATGTTAATCGGGTCTTGATTCGCTTGACGCTGCTG` , please.
stdout: 2.51

stdin: Suppose we examine the sequence `CCGATTAACATCAGGGGTTTACCTGATGTTAATCGGGTCTTGATTCGCTTGACGCTGCTG` ; what binding signal value has been reported?
stdout: 1.56

stdin: Given the sequence `CCGATTAACATCAGGGGGGAACCTGATGTTAATCGGGTCTTGATTCGCTTGACGCTGCTG` , what is its reported binding signal?
stdout: 8.57

stdin: Name the reported binding signal value associated with the sequence `CCGATTAACATCAGGGGGATGTATGATGTTAATCGGGTCTTGATTCGCTTGACGCTGCTG`
stdout: 4.13

stdin: Give its binding signal value. Item: `CCGATTAACATCAGGGGACTTTATGATGTTAATCGGGTCTTGATTCGCTTGACGCTGCTG`
stdout: 3.64

stdin: binding signal for `CCGATTAACATCAAATAATCCCCTGATGTTAATCGGGTCTTGATTCGCTTGACGCTGCTG` ?
stdout: 5.91

stdin: Quick one: binding signal of `CCGATTAACATCAGTAAATCCCATGATGTTAATCGGGTCTTGATTCGCTTGACGCTGCTG` ?
stdout: 1.48

stdin: Form field: reported binding signal of `CCGATTAACATCAACTATCCCCCTGATGTTAATCGGGTCTTGATTCGCTTGACGCTGCTG`
stdout: 6.08

stdin: Report binding signal for `CCGATTAACATCAAGGGAATTTATGATGTTAATCGGGTCTTGATTCGCTTGACGCTGCTG` please.
stdout: 3.54

stdin: binding signal for `CCGATTAACATCAGGGGATGGGATGATGTTAATCGGGTCTTGATTCGCTTGACGCTGCTG` ?
stdout: 2.16

stdin: Request the reported binding signal associated with `CCGATTAACATCAAATAGGGAATTGATGTTAATCGGGTCTTGATTCGCTTGACGCTGCTG`
stdout: 1.54

stdin: Fill in: binding signal of `CCGATTAACATCAGGGGGAGATATGATGTTAATCGGGTCTTGATTCGCTTGACGCTGCTG` is ___
stdout: 8.37

stdin: Would you kindly share the measured binding signal for `CCGATTAACATCAATAAAACCCCTGATGTTAATCGGGTCTTGATTCGCTTGACGCTGCTG` ?
stdout: 2.26

stdin: Which binding signal is reported for this sequence? `CCGATTAACATCAGGAGTCCCCATGATGTTAATCGGGTCTTGATTCGCTTGACGCTGCTG`
stdout: 2.23

stdin: Name the reported binding signal value associated with the sequence `CCGATTAACATCAAAATCACCCCTGATGTTAATCGGGTCTTGATTCGCTTGACGCTGCTG`
stdout: 5.02

stdin: Param item = `CCGATTAACATCAGGGGGTACCCTGATGTTAATCGGGTCTTGATTCGCTTGACGCTGCTG` ; retrieve measured binding signal.
stdout: 4.14

stdin: Recorded binding signal for `CCGATTAACATCAGGGACAAAAATGATGTTAATCGGGTCTTGATTCGCTTGACGCTGCTG` , please?
stdout: 2.39

stdin: What measured binding signal goes with `CCGATTAACATCAGGGACTGCCCTGATGTTAATCGGGTCTTGATTCGCTTGACGCTGCTG` ?
stdout: 1.04

stdin: Using the record for `CCGATTAACATCAAATTCCCGTATGATGTTAATCGGGTCTTGATTCGCTTGACGCTGCTG` , report its binding signal.
stdout: 2.65

stdin: Request the reported binding signal associated with `CCGATTAACATCATAATTCCCCATGATGTTAATCGGGTCTTGATTCGCTTGACGCTGCTG`
stdout: 6.68

stdin: Report binding signal for `CCGATTAACATCAGAAATCCCAATGATGTTAATCGGGTCTTGATTCGCTTGACGCTGCTG` please.
stdout: 1.84

stdin: Recorded binding signal of `CCGATTAACATCACACATGCCCCTGATGTTAATCGGGTCTTGATTCGCTTGACGCTGCTG` , please.
stdout: 1.12

stdin: Bench note: what binding signal did `CCGATTAACATCAGGGGTTACCCTGATGTTAATCGGGTCTTGATTCGCTTGACGCTGCTG` show?
stdout: 4.23

stdin: What measured binding signal goes with `CCGATTAACATCAAAAATCTCCCTGATGTTAATCGGGTCTTGATTCGCTTGACGCTGCTG` ?
stdout: 3.4

stdin: # query: binding signal of entry `CCGATTAACATCACCGCTTCCCTTGATGTTAATCGGGTCTTGATTCGCTTGACGCTGCTG`
stdout: 1.46

stdin: Which measured binding signal value corresponds to `CCGATTAACATCAACAAACCCCCTGATGTTAATCGGGTCTTGATTCGCTTGACGCTGCTG` ?
stdout: 2.52

stdin: # get_value(readout='binding signal', item= `CCGATTAACATCAGAAATCCCACTGATGTTAATCGGGTCTTGATTCGCTTGACGCTGCTG` )
stdout: 1.65

* * *

Molecular target: GST-Dm-Relish (Drosophila melanogaster, UniProt Q94527 99-473)
Sequence: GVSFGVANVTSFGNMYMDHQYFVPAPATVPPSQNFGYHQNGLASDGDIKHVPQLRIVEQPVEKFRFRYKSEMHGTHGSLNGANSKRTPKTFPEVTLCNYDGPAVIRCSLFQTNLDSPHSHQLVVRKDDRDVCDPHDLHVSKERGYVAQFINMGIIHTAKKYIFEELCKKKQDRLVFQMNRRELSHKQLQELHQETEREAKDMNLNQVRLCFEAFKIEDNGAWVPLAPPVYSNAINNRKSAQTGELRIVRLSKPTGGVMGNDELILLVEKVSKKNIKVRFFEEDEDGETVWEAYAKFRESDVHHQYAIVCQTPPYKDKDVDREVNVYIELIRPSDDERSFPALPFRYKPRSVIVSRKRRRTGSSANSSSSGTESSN
Test: protein-binding microarray (PBM); PBM: ~300 nM protein, 6 mM HEPES pH 7.8, 80 mM KCl, 0.5 mM EDTA, 0.5 mM EGTA, 6% glycerol, 35 ng/ul poly-dIdC, 1% milk, 1 h, room temperature; Ap Aiptasia and Nv Nematostella (sea anemones) / Co Capsaspora / Aq Amphimedon (sponge) / Dm Drosophila / Hu human; RHD is the Rel homology domain; high values mean tight binding
Conditions: dsDNA, one strand shown
Classes by binding signal: low bin = under 2 z-score, mid bin = from 2 z-score up to 4 z-score, high bin = 4 z-score and over

stdin: Category lookup for the sequence `CCGATTAACATCAGGGGGAGATATGATGTTAATCGGGTCTTGATTCGCTTGACGCTGCTG`
stdout: mid bin

stdin: Into which bin does this sequence go? `CCGATTAACATCACGGGGTGGCCTGATGTTAATCGGGTCTTGATTCGCTTGACGCTGCTG`
stdout: low bin

stdin: Could you tell me which band `CCGATTAACATCACCCATTCCCCTGATGTTAATCGGGTCTTGATTCGCTTGACGCTGCTG` belongs to?
stdout: mid bin

stdin: Field: class (binding signal) — entry: `CCGATTAACATCAGGGGTATACCTGATGTTAATCGGGTCTTGATTCGCTTGACGCTGCTG`
stdout: high bin

stdin: State the band of `CCGATTAACATCAGGGGGATGGATGATGTTAATCGGGTCTTGATTCGCTTGACGCTGCTG`
stdout: mid bin

stdin: Lab note: sort `CCGATTAACATCACAAACCCCCCTGATGTTAATCGGGTCTTGATTCGCTTGACGCTGCTG` into the matching binding signal band.
stdout: high bin

stdin: Which class holds `CCGATTAACATCAGGGACTCACCTGATGTTAATCGGGTCTTGATTCGCTTGACGCTGCTG` ?
stdout: high bin

stdin: Form field 'band' for `CCGATTAACATCAGGTTCTTACCTGATGTTAATCGGGTCTTGATTCGCTTGACGCTGCTG`
stdout: low bin

stdin: Textbook exercise: identify the category of the sequence given here, `CCGATTAACATCACATATCCCCCTGATGTTAATCGGGTCTTGATTCGCTTGACGCTGCTG` , according to its measured value.
stdout: mid bin
